Literature compilation of pIC50 measurements on BTK (Homo sapiens, UniProt Q06187).
Sequence (Q06187 whole entry): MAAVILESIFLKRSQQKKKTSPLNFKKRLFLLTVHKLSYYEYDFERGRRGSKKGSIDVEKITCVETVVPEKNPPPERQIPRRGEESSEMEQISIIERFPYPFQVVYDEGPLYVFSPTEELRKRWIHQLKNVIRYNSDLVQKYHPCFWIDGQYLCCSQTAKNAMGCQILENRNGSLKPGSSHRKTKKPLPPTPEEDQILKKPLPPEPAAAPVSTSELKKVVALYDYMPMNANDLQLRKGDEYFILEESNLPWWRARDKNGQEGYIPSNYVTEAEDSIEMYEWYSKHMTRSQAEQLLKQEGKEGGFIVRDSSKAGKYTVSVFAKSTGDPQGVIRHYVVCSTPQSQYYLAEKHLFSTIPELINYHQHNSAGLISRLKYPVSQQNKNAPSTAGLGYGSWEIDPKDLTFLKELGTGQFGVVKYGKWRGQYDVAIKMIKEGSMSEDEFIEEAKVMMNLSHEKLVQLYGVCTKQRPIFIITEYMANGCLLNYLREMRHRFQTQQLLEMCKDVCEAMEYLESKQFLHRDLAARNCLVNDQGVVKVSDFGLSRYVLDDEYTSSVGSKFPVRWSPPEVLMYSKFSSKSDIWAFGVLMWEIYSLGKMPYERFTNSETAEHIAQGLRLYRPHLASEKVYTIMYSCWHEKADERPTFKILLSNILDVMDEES
pIC50: −log10 of the molar value.

Illustrative cases are given below, each with its answer.
# COMPOUND, pIC50
rows = [
    ("Cc1cc(-c2ncnn3cc(N4CCN(C)C(C)C4)cc23)ccc1CNC(=O)c1noc(C(C)(C)C)n1 (stereo not shown)", "≥ 9.00"),
    ("Cc1cc(-c2ncnc3[nH]c(-c4cnn(C)c4)cc23)ccc1C(C)NC(=O)c1cc2c(s1)CCOC2 (stereo not shown)", "> 8.00"),
    ("CN(C/C=C/C(=O)N1CC[C@@H](n2nc(-c3ccc(C(=O)Nc4cc(C#N)ccn4)cc3)c3c(N)ncnc32)C1)C1CC1", "> 7.00"),
]

Proceed to the following item.
Query: Which value of pIC50 has been reported for CC(C)(C)c1cc(F)c2c(=O)n(-c3cccc(-n4cc(C(N)=O)c(Nc5ccc(F)cn5)n4)c3CO)ncc2c1 in the records?
Reply: 9.62
